B1: HDV Ribozyme (parent)
chain: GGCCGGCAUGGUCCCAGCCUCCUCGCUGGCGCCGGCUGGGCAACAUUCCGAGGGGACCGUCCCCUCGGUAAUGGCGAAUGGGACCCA

# Variants of: B1
# method.notes: self-cleavage, relative activity (ratio to wild type); higher = more cleavage; co-transcriptional
Mark 1 (yes) for reported self-cleavage of 0.2 or greater; mark 0 (no) for anything smaller.

Query: Threshold query (self-cleavage >= 0.2) on "GGCCGGCAUGGUCCCAGCCUCCUCGCUGGCGCCGGCUGGGCAGCAUUCCGAGGGGACCGUCCCCUCGGUAAUGGCGAAUGGUACCCA"
Response: 0 (no)

Query: State whether the measured self-cleavage reaches 0.2, counting equality as reaching it, for "GGCCGGCAUGGUCUCAGCCUCCUCGCUGGCGCCGGCUGGCCAACAUUCCGAGGGGACCGUCCCCUCGGUAAUGGCGAAUGGGACCCA"
Response: 1 (yes)

Query: Form field: self-cleavage at least 0.2? Entry: "GGCCGGCAUGGUCCCAGCCUCCUCGCUGGCGCCGGCUGGGCAACAUCCCGAGGGGACCGUCCCCUCGGUAAUGGCGAUUGGGACCCA"
Response: 1 (yes)

Query: Is self-cleavage for "GGCCGGCAUGCUCCCAGCCUCCUCGCUAGCGCCGGCUGGGCAACAUUCCGAGGGGACCGUCCCCUCGGUAAUGGCGAAUGGGACCCA" at or above 0.2?
Response: 0 (no)

Query: Is it the case that "GGCCGGCAUGGUCCCAGCCUCCUCGCUGGCGUCGGCUGGGCAACAUUCCGAGGGGACCGUCCCCUCGGUAAUGGCGAAUGGGGCCCA" has self-cleavage reaching or exceeding 0.2?
Response: 1 (yes)

Query: hey, is self-cleavage for this one >= 0.2? "GGCCGGCAUGGUCCCAUCCUCCUCGCUGGCGCCGGCUGGGCAACAUCCCGAGGGGACCGUCCCCUCGGUAAUGGCGAAUGGGACCCA"
Response: 1 (yes)

Query: Given the entry "GGCCGGCAGGGUCCCAGCCUCCUCGCUGGCGCCGGCUGGGCAGCAUUCCGAGGGGACCGUCCCCUCGGUAAUGGCGAAUGGGACCCA" , answer whether its self-cleavage meets or surpasses 0.2.
Response: 1 (yes)

Query: Quick check, self-cleavage >= 0.2? "GGCCGGCAUGGUCCCAGCCUCCUCGCUGGCGCCGGCUAGGCAACAUUCCGAGGGGACCGUCCCCUCGGUAGUGGCGAAUGGGACCCA"
Response: 0 (no)

Query: Record "GGCCGGCAUGGUCCCAGCCUCCUCGCUGGCGCCGGAUGGGCAACAUUCCGAGGGGACCCUCCCCUCGGUAAUGGCGAAUGGGACCCA" ; criterion: self-cleavage no lower than 0.2. Met?
Response: 0 (no)

Query: Would you say "GGCCGGCAUGGUCCCAGCAGCCUCGCUGGCGCCGGCUGGGCAACAUUCCGAGGGGACCGUCCCCUCGGUAAUGGCGAAUGGGACCCA" shows self-cleavage at minimum 0.2?
Response: 1 (yes)

Query: hey, is self-cleavage for this one >= 0.2? "GGCCGGCAUGGUCCCAGCCUCCUCGCUGGCGCCGGCUGGGCAACAUUCCGAGGGGACCGUCCCCUCGAUAAUGGCGAAUGUGACCCA"
Response: 0 (no)

Query: Reported self-cleavage reaches at least 0.2 for "GGCCGGCAUGGUCCGAGCCUCCUCGCUGGCGCCGGCUGGGCCACAUUCCGAGGGGACCGUCCCCUCGGUAAUGGCGAAUGGGACCCA" ?
Response: 0 (no)

Query: Determine whether this variant has self-cleavage no lower than 0.2: "GGCCGGCAUGGUCCCAGCCCCCUCGCUGGCGCCGGCUGAGCAACAUUCCGAGGGGACCGUCCCCUCGGUAAUGGCGAAUGGGACCCA"
Response: 0 (no)

Query: # check: self-cleavage of "GGCCGGCAUGGUCCCAGCCUCCUCGCUGGCGCCGUCUGGGCAACAUUCCGAGGGGACCGUUCCCUCGGUAAUGGCGAAUGGGACCCA" is greater than or equal to 0.2
Response: 1 (yes)

Query: I'd appreciate it if you could say whether "GGCCGGCAUGGUCCCAGCCUCCUCGCUGGCGCCGGCUGGGCAACAUUACGAGGGGACCGUCCCCUCGGUAAUGGCGAACGGGACCCA" has self-cleavage at least equal to 0.2.
Response: 1 (yes)

Query: Please tell me: is the variant "GGACGGCAUGGUCCCAGCCUCCUCGCUGGCGCCGGCUGGGCAACAUUCCGAGGGGACCGUCCCCUCGGUAAUGUCGAAUGGGACCCA" at or over 0.2 in terms of self-cleavage?
Response: 0 (no)
